Recorded measurements of Correlation, one per entry
Experimental System: ABCB5 (Homo sapiens)
Construct: profiled in 60 diverse cancer cell lines (the NCI-60) using real-time RT-PCR; endogenous in cells; host or cells: NCI-60 human cancer cell lines
Sequence (Q2M3G0 1-1257): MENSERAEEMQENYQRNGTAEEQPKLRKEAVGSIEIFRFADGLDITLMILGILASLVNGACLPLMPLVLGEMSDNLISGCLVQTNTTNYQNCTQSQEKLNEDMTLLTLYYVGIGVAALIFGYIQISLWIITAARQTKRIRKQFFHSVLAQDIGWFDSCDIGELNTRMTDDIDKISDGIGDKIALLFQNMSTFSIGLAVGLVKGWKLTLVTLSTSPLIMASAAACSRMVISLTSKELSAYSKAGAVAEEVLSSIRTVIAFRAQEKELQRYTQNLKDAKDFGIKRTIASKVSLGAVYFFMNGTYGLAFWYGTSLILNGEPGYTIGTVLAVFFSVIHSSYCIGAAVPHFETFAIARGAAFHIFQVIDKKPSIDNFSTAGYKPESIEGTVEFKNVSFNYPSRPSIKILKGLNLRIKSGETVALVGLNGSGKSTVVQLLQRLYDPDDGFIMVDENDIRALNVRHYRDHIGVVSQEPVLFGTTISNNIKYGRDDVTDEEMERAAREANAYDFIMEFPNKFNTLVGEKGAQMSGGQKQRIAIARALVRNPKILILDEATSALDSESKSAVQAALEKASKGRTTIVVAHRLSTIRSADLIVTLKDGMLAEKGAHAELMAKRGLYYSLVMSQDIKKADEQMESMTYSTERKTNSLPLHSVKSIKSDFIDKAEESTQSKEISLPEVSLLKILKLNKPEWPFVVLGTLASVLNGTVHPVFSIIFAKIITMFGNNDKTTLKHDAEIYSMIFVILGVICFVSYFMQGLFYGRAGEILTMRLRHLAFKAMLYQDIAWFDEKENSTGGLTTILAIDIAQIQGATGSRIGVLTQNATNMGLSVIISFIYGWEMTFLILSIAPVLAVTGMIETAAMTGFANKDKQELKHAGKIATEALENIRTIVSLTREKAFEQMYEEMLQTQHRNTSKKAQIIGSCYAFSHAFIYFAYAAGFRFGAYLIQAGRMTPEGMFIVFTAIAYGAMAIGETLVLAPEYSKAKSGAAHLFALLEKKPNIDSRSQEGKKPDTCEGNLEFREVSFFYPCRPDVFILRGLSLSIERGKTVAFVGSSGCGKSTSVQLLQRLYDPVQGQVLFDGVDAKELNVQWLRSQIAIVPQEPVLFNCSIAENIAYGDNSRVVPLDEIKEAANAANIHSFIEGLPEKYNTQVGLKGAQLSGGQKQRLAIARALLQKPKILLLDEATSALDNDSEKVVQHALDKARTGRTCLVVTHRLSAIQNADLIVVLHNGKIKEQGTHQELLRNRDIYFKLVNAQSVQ
Test Description: Correlation of ABCB5 expression with drug sensitivity across the NCI-60
Assay type: cell-based
Test Parameters: Pearson correlation of ABCB5 expression with sensitivity of the 60 cell lines; 1429 compounds; inverse, p < 0.0001
# output: bare number, no unit

Solved cases below.
1) C=C1C(=O)O[C@H]2[C@@H](O)[C@H](C)CCC/C(C)=C/CC[C@@]3(C)O[C@@H]3C[C@@H]12 [NSC 694509] : −0.2924
2) CN1N=C(N)c2cn([C@@H]3O[C@H](COP(=O)(O)O)[C@@H](O)[C@H]3O)c3ncnc1c23 [NSC 280594] : −0.3477
3) CC(=O)Oc1ccc(C2(c3ccc(F)cc3)OC(=O)c3ccccc32)c(C)c1 (centres unmarked) [NSC 671456] : −0.3650

Record request: Correlation value, item OCC1OC(c2scc3c(=S)nc[nH]c23)C(O)C1O (centres unmarked) [NSC 670036]
−0.4561

Record request: Correlation value, item CN(C)CC1CCC/C(=C\c2ccc(OC(=O)/C=C/c3ccc(Cl)c(Cl)c3)cc2)C1=O.Cl (centres unmarked) [NSC 693443]
−0.3300
